- target.system: T1, gp130 on HepG2 B6 cells (UniProt P40189 23-918, limits assumed)
- T1 sequence (looked up): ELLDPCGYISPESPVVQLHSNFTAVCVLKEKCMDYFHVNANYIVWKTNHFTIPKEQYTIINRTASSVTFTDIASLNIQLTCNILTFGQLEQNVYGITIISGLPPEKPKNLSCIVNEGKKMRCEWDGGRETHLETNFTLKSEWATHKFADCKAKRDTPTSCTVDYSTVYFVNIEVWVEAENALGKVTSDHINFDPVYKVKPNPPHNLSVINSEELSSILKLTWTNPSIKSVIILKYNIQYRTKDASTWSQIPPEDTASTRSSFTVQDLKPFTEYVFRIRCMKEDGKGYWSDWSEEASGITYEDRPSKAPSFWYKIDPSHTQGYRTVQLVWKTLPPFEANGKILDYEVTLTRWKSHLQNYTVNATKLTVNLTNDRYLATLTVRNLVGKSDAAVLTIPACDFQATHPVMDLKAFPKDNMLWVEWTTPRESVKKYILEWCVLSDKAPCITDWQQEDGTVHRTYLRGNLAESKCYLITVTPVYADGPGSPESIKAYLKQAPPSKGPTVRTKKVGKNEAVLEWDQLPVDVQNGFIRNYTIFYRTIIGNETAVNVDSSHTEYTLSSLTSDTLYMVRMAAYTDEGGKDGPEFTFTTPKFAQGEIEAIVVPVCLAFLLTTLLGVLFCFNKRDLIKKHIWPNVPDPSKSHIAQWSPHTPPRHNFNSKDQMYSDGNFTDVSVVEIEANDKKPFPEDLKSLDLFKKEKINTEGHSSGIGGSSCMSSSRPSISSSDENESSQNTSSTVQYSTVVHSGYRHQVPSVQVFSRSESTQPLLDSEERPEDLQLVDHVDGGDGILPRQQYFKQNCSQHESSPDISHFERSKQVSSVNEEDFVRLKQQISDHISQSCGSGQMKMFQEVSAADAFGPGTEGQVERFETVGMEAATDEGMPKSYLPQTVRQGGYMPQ
- test: cell-based or functional assay
Exercise: state measured sPAP HepG2 B6 assay: Expt 2 % (EC50 as % of wild type EC50) for each of the binders provided.
Write the answer as a number in %, unit excluded.

Supply recorded sPAP HepG2 B6 assay: Expt 2 % (EC50 as % of wild type EC50) for OSM-GST mutant R11A (ligand, not shown: a dimerising Fc or GST; large carriers; small tags and cut ends, Alanine mutant of m4; also called (5)R11A; 5 R11A) AAIGSCSKEYAVLLGQLQKQTDLMQDTSRLLDPYIRIQGLDVPKLREHCRERPGAFPSEETLRGLGRRGFLQTLNATLGCVLHRLADLEQRLPKAQDLERSGLNIEDLEKLQMARPNILGLRNNIYCMAQLLDNSDTAEPTKAGRGASQPPTPTPASDAFQRKLEGCRFLHGYHRFMHSVGRVFSKWGESPNRSRR here. 86

Note sPAP HepG2 B6 assay: Expt 2 % (EC50 as % of wild type EC50) for the binder shown: wild type OSM-GST fusion (ligand, pGEX-derived fusion; also called wt OSM-GST; GST-hOSM; not shown: glutathione S-transferase (GST) encoded by modified pGEX-3X (Pharmacia), N-terminal, up to the Factor Xa site region sho) AAIGSCSKEYRVLLGQLQKQTDLMQDTSRLLDPYIRIQGLDVPKLREHCRERPGAFPSEETLRGLGRRGFLQTLNATLGCVLHRLADLEQRLPKAQDLERSGLNIEDLEKLQMARPNILGLRNNIYCMAQLLDNSDTAEPTKAGRGASQPPTPTPASDAFQRKLEGCRFLHGYHRFMHSVGRVFSKWGESPNRSRR 100

Report sPAP HepG2 B6 assay: Expt 2 % (EC50 as % of wild type EC50) for OSM-GST mutant D22A (ligand, not shown: a dimerising Fc or GST; large carriers; small tags and cut ends, Alanine mutant of m4; also called (15)D22; 15 D22) AAIGSCSKEYRVLLGQLQKQTALMQDTSRLLDPYIRIQGLDVPKLREHCRERPGAFPSEETLRGLGRRGFLQTLNATLGCVLHRLADLEQRLPKAQDLERSGLNIEDLEKLQMARPNILGLRNNIYCMAQLLDNSDTAEPTKAGRGASQPPTPTPASDAFQRKLEGCRFLHGYHRFMHSVGRVFSKWGESPNRSRR 50

Note down sPAP HepG2 B6 assay: Expt 2 % (EC50 as % of wild type EC50) recorded for OSM-GST mutant R122A (ligand, not shown: a dimerising Fc or GST; large carriers; small tags and cut ends, Alanine mutant of m4; also called (21)R122A; 21 R122A) AAIGSCSKEYRVLLGQLQKQTDLMQDTSRLLDPYIRIQGLDVPKLREHCRERPGAFPSEETLRGLGRRGFLQTLNATLGCVLHRLADLEQRLPKAQDLERSGLNIEDLEKLQMARPNILGLANNIYCMAQLLDNSDTAEPTKAGRGASQPPTPTPASDAFQRKLEGCRFLHGYHRFMHSVGRVFSKWGESPNRSRR 43

Please look at this binder and report its sPAP HepG2 B6 assay: Expt 2 % (EC50 as % of wild type EC50): OSM-GST mutant N123A (ligand, not shown: a dimerising Fc or GST; large carriers; small tags and cut ends, Alanine mutant of m4; also called (22)N123A; 22 N123A) AAIGSCSKEYRVLLGQLQKQTDLMQDTSRLLDPYIRIQGLDVPKLREHCRERPGAFPSEETLRGLGRRGFLQTLNATLGCVLHRLADLEQRLPKAQDLERSGLNIEDLEKLQMARPNILGLRANIYCMAQLLDNSDTAEPTKAGRGASQPPTPTPASDAFQRKLEGCRFLHGYHRFMHSVGRVFSKWGESPNRSRR 154

Answer with the recorded sPAP HepG2 B6 assay: Expt 2 % (EC50 as % of wild type EC50) of OSM-GST mutant Q130A (ligand, not shown: a dimerising Fc or GST; large carriers; small tags and cut ends, Alanine mutant of m4; also called (25)Y130A; 25 Q130A) AAIGSCSKEYRVLLGQLQKQTDLMQDTSRLLDPYIRIQGLDVPKLREHCRERPGAFPSEETLRGLGRRGFLQTLNATLGCVLHRLADLEQRLPKAQDLERSGLNIEDLEKLQMARPNILGLRNNIYCMAALLDNSDTAEPTKAGRGASQPPTPTPASDAFQRKLEGCRFLHGYHRFMHSVGRVFSKWGESPNRSRR only. 26

Please report the measured sPAP HepG2 B6 assay: Expt 2 % (EC50 as % of wild type EC50) for OSM-GST mutant N124A (ligand, not shown: a dimerising Fc or GST; large carriers; small tags and cut ends, Alanine mutant of m4; also called (23)N124A; 23 N124A) AAIGSCSKEYRVLLGQLQKQTDLMQDTSRLLDPYIRIQGLDVPKLREHCRERPGAFPSEETLRGLGRRGFLQTLNATLGCVLHRLADLEQRLPKAQDLERSGLNIEDLEKLQMARPNILGLRNAIYCMAQLLDNSDTAEPTKAGRGASQPPTPTPASDAFQRKLEGCRFLHGYHRFMHSVGRVFSKWGESPNRSRR 113

State, in one line, measured sPAP HepG2 B6 assay: Expt 2 % (EC50 as % of wild type EC50) of OSM-GST mutant K19A (ligand, Alanine mutant of m4; also called (12)K19A; 12 K19A; not shown: Its linker is left out) AAIGSCSKEYRVLLGQLQAQTDLMQDTSRLLDPYIRIQGLDVPKLREHCRERPGAFPSEETLRGLGRRGFLQTLNATLGCVLHRLADLEQRLPKAQDLERSGLNIEDLEKLQMARPNILGLRNNIYCMAQLLDNSDTAEPTKAGRGASQPPTPTPASDAFQRKLEGCRFLHGYHRFMHSVGRVFSKWGESPNRSRR 37

Give the reported value of sPAP HepG2 B6 assay: Expt 2 % (EC50 as % of wild type EC50) for this record: OSM-GST mutant K8A (ligand, not shown: a dimerising Fc or GST; large carriers; small tags and cut ends, Alanine mutant of m4; also called (2)K8A; 2 K8A) AAIGSCSAEYRVLLGQLQKQTDLMQDTSRLLDPYIRIQGLDVPKLREHCRERPGAFPSEETLRGLGRRGFLQTLNATLGCVLHRLADLEQRLPKAQDLERSGLNIEDLEKLQMARPNILGLRNNIYCMAQLLDNSDTAEPTKAGRGASQPPTPTPASDAFQRKLEGCRFLHGYHRFMHSVGRVFSKWGESPNRSRR 38

Indicate its recorded sPAP HepG2 B6 assay: Expt 2 % (EC50 as % of wild type EC50); the binder in question is OSM-GST mutant L17A (ligand, Alanine mutant of m4; also called (10)L17A; 10 L17A; not shown: Its linker is left out) AAIGSCSKEYRVLLGQAQKQTDLMQDTSRLLDPYIRIQGLDVPKLREHCRERPGAFPSEETLRGLGRRGFLQTLNATLGCVLHRLADLEQRLPKAQDLERSGLNIEDLEKLQMARPNILGLRNNIYCMAQLLDNSDTAEPTKAGRGASQPPTPTPASDAFQRKLEGCRFLHGYHRFMHSVGRVFSKWGESPNRSRR 174

Return sPAP HepG2 B6 assay: Expt 2 % (EC50 as % of wild type EC50) (reported value) for this binder: OSM-GST mutant L119A (ligand, not shown: a dimerising Fc or GST; large carriers; small tags and cut ends, Alanine mutant of m4; also called (19)L119A; 19 L119A) AAIGSCSKEYRVLLGQLQKQTDLMQDTSRLLDPYIRIQGLDVPKLREHCRERPGAFPSEETLRGLGRRGFLQTLNATLGCVLHRLADLEQRLPKAQDLERSGLNIEDLEKLQMARPNIAGLRNNIYCMAQLLDNSDTAEPTKAGRGASQPPTPTPASDAFQRKLEGCRFLHGYHRFMHSVGRVFSKWGESPNRSRR 72
